The origin of these recorded values is patent US12180193B2.

molecular target: BRAF V600E (Homo sapiens, UniProt P15056, V600E); construct: expressed in transfected cells; experiment: Cellular assay of target protein degradation, T-Rex 293 cells stably transfected with HA-BRAF_V600E (HA immunofluorescence, high content imaging); type: cell-based; conditions: maximum degradation observed, T-Rex 293 HA-BRAF V600E
Sequence (P15056 whole entry V600E): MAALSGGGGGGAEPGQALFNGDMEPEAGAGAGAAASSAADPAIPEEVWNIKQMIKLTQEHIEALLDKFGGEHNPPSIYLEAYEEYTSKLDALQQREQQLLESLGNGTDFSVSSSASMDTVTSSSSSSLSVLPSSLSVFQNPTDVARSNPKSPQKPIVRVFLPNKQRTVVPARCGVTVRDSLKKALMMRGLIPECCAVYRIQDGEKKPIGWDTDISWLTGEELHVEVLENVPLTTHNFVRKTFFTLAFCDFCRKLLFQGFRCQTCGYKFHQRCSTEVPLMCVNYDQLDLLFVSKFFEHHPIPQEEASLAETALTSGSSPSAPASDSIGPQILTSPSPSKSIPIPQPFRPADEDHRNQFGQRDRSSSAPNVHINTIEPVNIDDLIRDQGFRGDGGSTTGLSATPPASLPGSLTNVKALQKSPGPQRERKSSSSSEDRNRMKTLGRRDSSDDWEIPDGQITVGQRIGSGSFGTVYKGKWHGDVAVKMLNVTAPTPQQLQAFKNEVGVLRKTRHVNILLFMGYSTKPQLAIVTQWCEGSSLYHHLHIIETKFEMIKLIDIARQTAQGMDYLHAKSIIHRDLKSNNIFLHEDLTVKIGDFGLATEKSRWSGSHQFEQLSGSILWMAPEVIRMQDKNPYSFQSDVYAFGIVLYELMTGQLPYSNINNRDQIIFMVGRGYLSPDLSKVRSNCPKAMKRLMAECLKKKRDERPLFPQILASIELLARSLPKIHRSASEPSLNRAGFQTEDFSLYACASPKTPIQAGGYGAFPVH
# Dmax annotations
propertyName: Dmax

compound="CN(CC1CCN(c2ccc3c(c2)CN(C2CCC(=O)NC2=O)C3=O)CC1)[C@H]1C[C@@H](Oc2ccc(-c3cnc4[nH]cc(C(=O)c5c(F)ccc(NS(=O)(=O)N6CC[C@@H](F)C6)c5F)c4c3)cc2)C1 (stereo partly shown)" targetofassay="BRAF V600E (Homo sapiens, UniProt P15056, V600E)" result="35 to 70%"
compound=O=C1CC[C@@H](N2Cc3cc(N4CCC(OC5CCN(c6ccc(-c7cnc8[nH]cc(C(=O)c9c(F)ccc(NS(=O)(=O)N%10CC[C@@H](F)C%10)c9F)c8c7)cc6)CC5)CC4)ccc3C2=O)C(=O)N1 targetofassay="BRAF V600E (Homo sapiens, UniProt P15056, V600E)" result="35 to 70%"
compound="O=C1CCC(N2Cc3cc(N4CCC(N5CCN(CC6CN(c7ccc(-c8cnc9[nH]cc(C(=O)c%10c(F)ccc(NS(=O)(=O)N%11CC[C@@H](F)C%11)c%10F)c9c8)cc7)C6)CC5)CC4)ccc3C2=O)C(=O)N1 (stereo partly shown)" targetofassay="BRAF V600E (Homo sapiens, UniProt P15056, V600E)" result="35 to 70%"
compound=COc1cc(N2CC3(CN(CC4CCN(c5ccc(-c6cnc7[nH]cc(C(=O)c8c(F)ccc(NS(=O)(=O)N9CC[C@@H](F)C9)c8F)c7c6)cc5)CC4)C3)C2)ccc1C(=O)N[C@@H]1CCC(=O)NC1=O targetofassay="BRAF V600E (Homo sapiens, UniProt P15056, V600E)" result="< 35%"
